tested_target: BATF;JUNB (human;human, UniProt Q16520;P17275 1-125;148-347, |)
Sequence 1: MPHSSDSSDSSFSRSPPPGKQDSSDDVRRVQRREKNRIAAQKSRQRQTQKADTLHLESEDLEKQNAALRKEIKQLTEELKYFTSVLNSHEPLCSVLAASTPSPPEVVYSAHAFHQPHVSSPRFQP
Sequence 2: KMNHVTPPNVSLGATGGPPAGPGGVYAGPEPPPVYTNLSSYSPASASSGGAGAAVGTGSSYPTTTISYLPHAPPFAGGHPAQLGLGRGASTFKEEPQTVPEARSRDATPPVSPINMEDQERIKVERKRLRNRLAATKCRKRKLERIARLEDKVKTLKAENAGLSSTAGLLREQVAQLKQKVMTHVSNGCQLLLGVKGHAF
protocol_text: Spec-seq (EMSA and sequencing of bound and unbound bands); 100 nM BATFx-JUNB, 1 uM dsDNA library, 50 mM K acetate, 20 mM Tris-acetate, 10 mM Mg acetate, 100 ug/ml BSA, pH 7.9, 10% glycerol, 30 min on ice; native 9% PAGE at 4 C; low values mean tight binding
measurement_parameters: protein: recombinant;recombinant; tags: N-terminal mCherry-TEV, cleaved off;C-terminal 6His; copies: 1;1; dsDNA, one strand shown
This listing pairs sequences with measured binding signal.

Entry GATAGTCTCATTTTCACCCCGTGAAAAAGAGTCATTGTTCCATTACAGTATCTGT ; assay system BATF;JUNB (human;human, UniProt Q16520;P17275 1-125;148-347, |); binding signal recorded at -0.185 kT

Now, please, on to the next sequence.
Record for GATAGTCTCATTTTCACCCCGTGAAATGAGTCGGTTGTTCCATTACAGTATCTGT under target or system BATF;JUNB (human;human, UniProt Q16520;P17275 1-125;148-347, |): binding signal reported as 0.0858 kT
